tgt: BRAF V600E (Homo sapiens, UniProt P15056, V600E)
Construct: endogenous C-terminal HiBiT fusion tag on BRAF V600E allele; endogenous in cells; host or cells: A375 clone 1F10 (CRISPR-Cas9 knock-in of the HiBiT tag; parental A375 from ATCC)
Sequence (P15056 whole entry V600E, the tested form may be a part): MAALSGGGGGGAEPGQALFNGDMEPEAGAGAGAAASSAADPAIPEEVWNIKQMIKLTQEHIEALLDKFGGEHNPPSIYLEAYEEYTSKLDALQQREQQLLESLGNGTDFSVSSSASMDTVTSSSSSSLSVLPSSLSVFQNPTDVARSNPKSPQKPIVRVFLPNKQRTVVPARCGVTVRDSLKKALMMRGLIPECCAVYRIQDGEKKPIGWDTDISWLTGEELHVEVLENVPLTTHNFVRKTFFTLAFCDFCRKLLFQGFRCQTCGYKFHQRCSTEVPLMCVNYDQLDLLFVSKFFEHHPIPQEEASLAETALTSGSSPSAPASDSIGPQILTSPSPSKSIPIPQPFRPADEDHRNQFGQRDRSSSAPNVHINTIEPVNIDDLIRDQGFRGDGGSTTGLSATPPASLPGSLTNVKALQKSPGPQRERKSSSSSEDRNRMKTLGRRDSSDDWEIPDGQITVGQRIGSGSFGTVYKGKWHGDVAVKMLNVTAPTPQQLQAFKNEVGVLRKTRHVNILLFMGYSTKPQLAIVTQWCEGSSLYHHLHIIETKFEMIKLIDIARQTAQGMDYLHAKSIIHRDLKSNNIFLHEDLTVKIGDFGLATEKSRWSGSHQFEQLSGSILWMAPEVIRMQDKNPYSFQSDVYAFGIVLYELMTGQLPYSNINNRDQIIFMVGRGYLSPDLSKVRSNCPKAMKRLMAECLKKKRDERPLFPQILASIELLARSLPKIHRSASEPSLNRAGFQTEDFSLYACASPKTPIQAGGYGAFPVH
assay text: BRAF HiBiT degradation assay, C-terminal HiBiT-tagged BRAF V600E A375 cells (clone 1F10), Nano-Glo HiBiT Lytic assay
Type: cell-based
assay conditions: A-375; A375 (BRAF V600E); percentage protein degraded at maximal compound effect relative to DMSO

| molecule | tgt | Dmax |
| --- | --- | --- |
| CCCS(=O)(=O)Nc1cccc(-c2nc(C(C)(C)C)sc2-c2ccnc(Nc3cccc(OC4CCN(C(=O)CN5CCc6cc(C7CCC(=O)NC7=O)ccc6C5)CC4)c3)n2)c1F (racemic) | BRAF V600E (Homo sapiens, UniProt P15056, V600E) | > 70% |
| CCCS(=O)(=O)Nc1cccc(-c2cn(-c3ccc(C4CCN(CC5CCN(c6ccc([C@@H]7CCC(=O)NC7=O)cc6)CC5)CC4)cc3)nc2-c2ccncc2)c1F | BRAF V600E (Homo sapiens, UniProt P15056, V600E) | > 70% |
| CCCS(=O)(=O)Nc1cccc(-c2nc(C(C)(C)C)sc2-c2ccnc(Nc3cccc(OC4CCN(C(=O)[C@H]5CC[C@H](Oc6ccc(C7CCC(=O)NC7=O)cc6)CC5)CC4)c3)n2)c1F (mixture of isomers) | BRAF V600E (Homo sapiens, UniProt P15056, V600E) | 30 to 70% |
| CCN(C)S(=O)(=O)Nc1cccc(-c2nc(C)sc2-c2ccnc(Nc3ccc(N4CCN(C(=O)CC5CCN(c6ccc(C7CCC(=O)NC7=O)cn6)CC5)CC4)cn3)n2)c1F (racemic) | BRAF V600E (Homo sapiens, UniProt P15056, V600E) | > 70% |
| CCCS(=O)(=O)Nc1cccc(-c2nc(C(C)(C)C)sc2-c2ccnc(NC3CCN(C4CCN(CC5CCN(c6ccc(C7CCC(=O)NC7=O)cn6)CC5)CC4)CC3)n2)c1F (racemic) | BRAF V600E (Homo sapiens, UniProt P15056, V600E) | 30 to 70% |
| CCCS(=O)(=O)Nc1cccc(-c2nc(C(C)(C)C)sc2-c2ccnc(Nc3ccc4c(c3)CCN(C(=O)CN3CCC(c5ccc(NC6CCC(=O)NC6=O)cc5)CC3)C4)n2)c1F (racemic) | BRAF V600E (Homo sapiens, UniProt P15056, V600E) | 30 to 70% |
| CCCS(=O)(=O)Nc1cccc(-c2cn(C3CCN(C(=O)C4CCN(C(=O)C5CCN(c6ccc(C7CCC(=O)NC7=O)cn6)CC5)CC4)CC3)nc2-c2ccncc2)c1F (racemic) | BRAF V600E (Homo sapiens, UniProt P15056, V600E) | > 70% |
| CCCS(=O)(=O)Nc1cccc(-c2cn(-c3ccc(C4CCN(CC5CCN(c6ccc(C7CCC(=O)NC7=O)c(F)c6)CC5)CC4)cc3)nc2-c2ccncc2)c1F (racemic) | BRAF V600E (Homo sapiens, UniProt P15056, V600E) | > 70% |
| CCCS(=O)(=O)Nc1cccc(-c2nc(C3CCN(C(=O)C4(C)CCN(C(=O)C5CCN(c6ccc(C7CCC(=O)NC7=O)cn6)CC5)CC4)CC3)sc2-c2ccncn2)c1F (racemic) | BRAF V600E (Homo sapiens, UniProt P15056, V600E) | > 70% |
| CCCS(=O)(=O)Nc1cccc(-c2nc(C(C)(C)C)sc2-c2ccnc(N[C@H]3CC[C@H](N4CCN(CC5CCN(c6ccc(C7CCC(=O)NC7=O)cn6)CC5)CC4)CC3)n2)c1F (mixture of isomers) | BRAF V600E (Homo sapiens, UniProt P15056, V600E) | 30 to 70% |
| CCCS(=O)(=O)Nc1cccc(-c2nc(C(C)(C)C)sc2-c2ccnc(NCC3CCN(CC4CCN(c5ccc(C(=O)N[C@H]6CCC(=O)NC6=O)nc5)CC4)CC3)n2)c1F | BRAF V600E (Homo sapiens, UniProt P15056, V600E) | 30 to 70% |
| CCCS(=O)(=O)Nc1cccc(-c2nc(C3CCC4(CC3)CN(C(=O)C3CN(C5CCN(c6ccc7c(c6)C(=O)N(C6CCC(=O)NC6=O)C7=O)CC5)C3)C4)sc2-c2ccnc(N)n2)c1F (racemic) | BRAF V600E (Homo sapiens, UniProt P15056, V600E) | > 70% |
| CCCS(=O)(=O)Nc1cccc(-c2nc(C(C)(C)C)sc2-c2ccnc(Nc3cccc(OC4CCN(CC5CCN(c6ccc7c(=O)n(C8CCC(=O)NC8=O)ccc7c6)CC5)CC4)c3)n2)c1F (racemic) | BRAF V600E (Homo sapiens, UniProt P15056, V600E) | 30 to 70% |
| CCCS(=O)(=O)Nc1cccc(-c2nc(C(C)(C)C)sc2-c2ccnc(Nc3cnn(C4CCN(C(=O)CN5CCC(c6ccc(NC7CCC(=O)NC7=O)cc6)CC5)CC4)c3)n2)c1F (racemic) | BRAF V600E (Homo sapiens, UniProt P15056, V600E) | > 70% |
| CCCS(=O)(=O)Nc1cccc(-c2nc(C)sc2-c2ccnc(Nc3ccc(N4CCN(CC5CCN(c6ccc([C@@H]7CCC(=O)NC7=O)cc6)CC5)CC4)cn3)n2)c1F | BRAF V600E (Homo sapiens, UniProt P15056, V600E) | > 70% |
| CCCS(=O)(=O)Nc1cccc(-c2nc(C3CCN(C(=O)C4CCN(C(=O)C5CCN(c6ccc(C7CCC(=O)NC7=O)cn6)CC5)CC4)CC3)sc2-c2ccnc(N[C@H](C)CO)n2)c1F (mixture of isomers) | BRAF V600E (Homo sapiens, UniProt P15056, V600E) | > 70% |
| CCCS(=O)(=O)Nc1cccc(-c2nc(C(C)(C)C)sc2-c2ccnc(Nc3ccc(C4CCN(CC5CCN(c6ccc(C(=O)NC7CCC(=O)NC7=O)nc6)CC5)CC4)cc3)n2)c1F (racemic) | BRAF V600E (Homo sapiens, UniProt P15056, V600E) | 30 to 70% |
| CCCS(=O)(=O)Nc1cccc(-c2nc(C3(C)CCN(C(=O)C4CCN(CC5CCN(c6ccc(C7CCC(=O)NC7=O)cn6)CC5)CC4)CC3)sc2-c2ccnc(N)n2)c1F (racemic) | BRAF V600E (Homo sapiens, UniProt P15056, V600E) | > 70% |
| CCCS(=O)(=O)Nc1cccc(-c2nc(C(C)(C)C)sc2-c2ccnc(Nc3ccc(C4CCN(CC5CCN(c6ccc(C7CCC(=O)NC7=O)cn6)CC5)CC4)cc3)n2)c1F (racemic) | BRAF V600E (Homo sapiens, UniProt P15056, V600E) | > 70% |
